# system: human LAG3 expressed on cells (human) (UniProt P18627)
# Sequence (P18627 23-525): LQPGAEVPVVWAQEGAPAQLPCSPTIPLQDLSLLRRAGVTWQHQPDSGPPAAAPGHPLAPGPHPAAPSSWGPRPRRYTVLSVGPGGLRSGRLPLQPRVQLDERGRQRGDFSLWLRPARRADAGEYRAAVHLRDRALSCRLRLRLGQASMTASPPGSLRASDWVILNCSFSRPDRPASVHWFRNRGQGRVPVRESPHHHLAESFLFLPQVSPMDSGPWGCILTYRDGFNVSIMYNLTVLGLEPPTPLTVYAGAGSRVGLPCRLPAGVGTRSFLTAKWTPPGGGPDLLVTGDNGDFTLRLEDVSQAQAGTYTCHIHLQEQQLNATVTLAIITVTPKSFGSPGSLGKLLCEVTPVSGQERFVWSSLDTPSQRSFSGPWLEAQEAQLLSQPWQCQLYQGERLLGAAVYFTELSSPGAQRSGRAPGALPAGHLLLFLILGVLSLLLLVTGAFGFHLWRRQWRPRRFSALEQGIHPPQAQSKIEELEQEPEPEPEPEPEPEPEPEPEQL
# run.description: cell-based or functional assay
assay.metric: IL-2, % of BMS, at 0.027434842 ug/mL (%)
Form entry: value (%) — number only.

Record sdAb fusion 25-2015-2 (Fc fusion, not shown: a dimerising Fc or GST) QLQLVESGGGLVQAGGSLRLSCAASGSIESFSFMGWYRQAPGKQRELVAGFTGAASLSFSTYTDAVKGRFTISRDNAKNTVYLQMNSLKPEDTAVYFCNVDPWSQSWPGRYWGQGTQVTVSSGGGGSGGGGSQLQLVESGGGLAQTGGSLRLSCAAAGFTFDDTATGWFRQAPGKNREGVACISSSDGRIHYIDSAKGRFTISKDNAKKTVYLQMDSLKPEDTAVYYCAAARKGSTDCQGAIWGSWGQGTQVIVSSEPKSCDKTHTCPPCPAPELLG , field IL-2, % of BMS, at 0.027434842 ug/mL: 20.8

Sure, the documented IL-2, % of BMS, at 0.027434842 ug/mL for sdAb fusion 25-17-3 (Fc fusion, not shown: a dimerising Fc or GST) QLQLVESGGGLVQAGGSLRLSCAASGSIESFSFMGWYRQAPGKQRELVAGFTGAASLSFSTYTDAVKGRFTISRDNAKNTVYLQMNSLKPEDTAVYFCNVDPWSQSWPGRYWGQGTQVTVSSGGGGSGGGGSGGGGSQLQLVESGGGLVQPGGSLRLSCAASGLTLDGYAIGWFRQAPGKEREGLACISGSDGSTHYLDSVKGRFTISRDNGKNTMALQMNSLQFGDTAIYYCAARRGSCSGSWTYWGQGTQVTVSSEPKSCDKTHTCPPCPAPELLG is 8.91

Measured IL-2, % of BMS, at 0.027434842 ug/mL of sdAb fusion 25-2015-3 (Fc fusion, not shown: a dimerising Fc or GST) QLQLVESGGGLVQAGGSLRLSCAASGSIESFSFMGWYRQAPGKQRELVAGFTGAASLSFSTYTDAVKGRFTISRDNAKNTVYLQMNSLKPEDTAVYFCNVDPWSQSWPGRYWGQGTQVTVSSGGGGSGGGGSGGGGSQLQLVESGGGLAQTGGSLRLSCAAAGFTFDDTATGWFRQAPGKNREGVACISSSDGRIHYIDSAKGRFTISKDNAKKTVYLQMDSLKPEDTAVYYCAAARKGSTDCQGAIWGSWGQGTQVIVSSEPKSCDKTHTCPPCPAPELLG : 30.2

These data points were gathered from patent US20230303690A1.
